MEASURED_ON: hM5 (Homo sapiens)
Construct: expressed in transfected cells
Sequence (P08912 whole entry): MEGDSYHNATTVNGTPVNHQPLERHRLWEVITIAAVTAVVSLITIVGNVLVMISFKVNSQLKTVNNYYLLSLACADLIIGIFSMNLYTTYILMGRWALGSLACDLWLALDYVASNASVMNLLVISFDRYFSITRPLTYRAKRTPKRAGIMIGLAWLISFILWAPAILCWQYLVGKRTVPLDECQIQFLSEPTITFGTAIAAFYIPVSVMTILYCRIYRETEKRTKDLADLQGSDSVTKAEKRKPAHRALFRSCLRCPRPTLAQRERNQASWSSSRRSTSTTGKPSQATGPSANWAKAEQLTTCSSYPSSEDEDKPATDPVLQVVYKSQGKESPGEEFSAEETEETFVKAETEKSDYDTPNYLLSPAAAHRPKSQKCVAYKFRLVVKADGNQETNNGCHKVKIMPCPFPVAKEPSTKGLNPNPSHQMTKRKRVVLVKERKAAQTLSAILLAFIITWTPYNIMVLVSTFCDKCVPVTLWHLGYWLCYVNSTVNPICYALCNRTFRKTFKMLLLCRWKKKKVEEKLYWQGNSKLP
METHOD_DESCRIPTION: Calcium mobilization concentration-response (IC50 vs EC80 acetylcholine), CHO hM5
Format: cell-based
TEST_CONDITIONS: CELL LINE hM5; calcium mobilization, EC80 acetylcholine addition; read-out: IC50
# if measured IC50 < 1000 nM: Satisfied  # else: Not satisfied

Field: example entries. Status: answers known.
QUERY: Identify whether the molecule [2H]C([2H])([2H])n1cc(S(=O)(=O)N2CCC(c3cn4ncnc4cc3C)CC2)c(C2CC2)n1 records IC50 below 1000 nM.
RESULT: Not satisfied

QUERY: Identify whether the molecule Cc1cc2nccn2nc1C1CCN(S(=O)(=O)c2cc3c(cc2F)OCC3)CC1 records IC50 below 1000 nM.
RESULT: Not satisfied

QUERY: Identify whether the molecule Cc1cc2ncnn2cc1C1CCN(S(=O)(=O)c2cc3c(cc2F)OCC3C)CC1 (stereo not shown) records IC50 below 1000 nM.
RESULT: Satisfied

QUERY: Identify whether the molecule O=S(=O)(c1cnn2c1CCCC2)N1CC=C(c2cc3ncnn3cc2Cl)CC1 records IC50 below 1000 nM.
RESULT: Satisfied

QUERY: Identify whether the molecule Cc1cc(C#N)cnc1C1=CCN(S(=O)(=O)c2ccc3c(c2)CCO3)CC1 records IC50 below 1000 nM.
RESULT: Not satisfied

Others:
QUERY: Identify whether the molecule Cc1cc2ncnn2cc1C1CCN(S(=O)(=O)c2ccc3c(c2)C(C)CO3)CC1 (stereo not shown) records IC50 below 1000 nM.
RESULT: Satisfied

QUERY: Identify whether the molecule Cc1ccncc1C1CCN(S(=O)(=O)c2cnn3c2OCCC3)CC1 records IC50 below 1000 nM.
RESULT: Not satisfied

QUERY: Identify whether the molecule [2H]C1([2H])Oc2ccc(S(=O)(=O)N3CC=C(c4cn5ncnc5cc4C)CC3)cc2C1([2H])[2H] records IC50 below 1000 nM.
RESULT: Satisfied

QUERY: Identify whether the molecule Cc1cc2ncnn2cc1C1CCN(S(=O)(=O)c2c(Cl)nn(C)c2C)CC1 records IC50 below 1000 nM.
RESULT: Satisfied

QUERY: Identify whether the molecule Cc1ccc(S(=O)(=O)N2CCC(c3cn4ccnc4cc3C)CC2)cn1 records IC50 below 1000 nM.
RESULT: Not satisfied

QUERY: Identify whether the molecule Cc1cc2ncnn2cc1C1CCN(S(=O)(=O)c2cn(-c3ccccc3)nc2C)CC1 records IC50 below 1000 nM.
RESULT: Not satisfied

QUERY: Identify whether the molecule Cc1cc2c(cc1C1CCN(S(=O)(=O)c3ccc4c(c3)CCO4)CC1)OCO2 records IC50 below 1000 nM.
RESULT: Not satisfied

QUERY: Identify whether the molecule CN1CCOc2ccc(S(=O)(=O)N3CC=C(c4cc5c(cc4Cl)OCO5)CC3)cc21 records IC50 below 1000 nM.
RESULT: Not satisfied

QUERY: Identify whether the molecule Cc1cc2ncnn2cc1C1CCN(S(=O)(=O)c2cnc(Cl)c(C)c2)CC1 records IC50 below 1000 nM.
RESULT: Not satisfied

QUERY: Identify whether the molecule Cc1cc2ncnn2cc1C1CCN(S(=O)(=O)c2cnc3ccccn23)CC1 records IC50 below 1000 nM.
RESULT: Satisfied

QUERY: Identify whether the molecule [2H]C1([2H])Oc2cc(C)c(C3CCN(S(=O)(=O)c4cnn(C)c4C)CC3)cc2OC1([2H])[2H] records IC50 below 1000 nM.
RESULT: Satisfied

QUERY: Identify whether the molecule Cc1nc(C)c(S(=O)(=O)N2CCC(c3cn4ncnc4cc3C)CC2C)s1 (stereo not shown) records IC50 below 1000 nM.
RESULT: Not satisfied

QUERY: Identify whether the molecule O=S(=O)(c1cnc2n1CCC2)N1CC=C(c2cn3ncnc3cc2Cl)CC1 records IC50 below 1000 nM.
RESULT: Not satisfied

QUERY: Identify whether the molecule Cc1c(S(=O)(=O)N2CC=C(c3cc4c(cc3Cl)OCO4)CC2)cnn1C records IC50 below 1000 nM.
RESULT: Satisfied

QUERY: Identify whether the molecule Cc1cc2ncnn2cc1C1CCN(S(=O)(=O)c2cnn(C(F)F)c2C)CC1 records IC50 below 1000 nM.
RESULT: Satisfied

QUERY: Identify whether the molecule O=S(=O)(c1ccc2ncccc2c1)N1CCC(c2cc3cc[nH]c3nn2)CC1 records IC50 below 1000 nM.
RESULT: Not satisfied

QUERY: Identify whether the molecule Cc1nc2cc(C)c(C3CCN(S(=O)(=O)c4cc5c(cc4C)OCC5C)CC3)cn2n1 (stereo not shown) records IC50 below 1000 nM.
RESULT: Not satisfied

QUERY: Identify whether the molecule Cc1nc2cc(C)c(C3CCN(S(=O)(=O)c4cc5c(cc4F)OCC5)CC3)cn2n1 records IC50 below 1000 nM.
RESULT: Not satisfied

QUERY: Identify whether the molecule COc1cc2ncnn2cc1C1CCN(S(=O)(=O)c2cn(C)nc2C)CC1 records IC50 below 1000 nM.
RESULT: Not satisfied
